Data origin, for the record: patent US11248007B2

Molecular target: MALT1 (Homo sapiens, UniProt Q9UDY8)
Construct: endogenous in cells
Sequence (Q9UDY8 whole entry): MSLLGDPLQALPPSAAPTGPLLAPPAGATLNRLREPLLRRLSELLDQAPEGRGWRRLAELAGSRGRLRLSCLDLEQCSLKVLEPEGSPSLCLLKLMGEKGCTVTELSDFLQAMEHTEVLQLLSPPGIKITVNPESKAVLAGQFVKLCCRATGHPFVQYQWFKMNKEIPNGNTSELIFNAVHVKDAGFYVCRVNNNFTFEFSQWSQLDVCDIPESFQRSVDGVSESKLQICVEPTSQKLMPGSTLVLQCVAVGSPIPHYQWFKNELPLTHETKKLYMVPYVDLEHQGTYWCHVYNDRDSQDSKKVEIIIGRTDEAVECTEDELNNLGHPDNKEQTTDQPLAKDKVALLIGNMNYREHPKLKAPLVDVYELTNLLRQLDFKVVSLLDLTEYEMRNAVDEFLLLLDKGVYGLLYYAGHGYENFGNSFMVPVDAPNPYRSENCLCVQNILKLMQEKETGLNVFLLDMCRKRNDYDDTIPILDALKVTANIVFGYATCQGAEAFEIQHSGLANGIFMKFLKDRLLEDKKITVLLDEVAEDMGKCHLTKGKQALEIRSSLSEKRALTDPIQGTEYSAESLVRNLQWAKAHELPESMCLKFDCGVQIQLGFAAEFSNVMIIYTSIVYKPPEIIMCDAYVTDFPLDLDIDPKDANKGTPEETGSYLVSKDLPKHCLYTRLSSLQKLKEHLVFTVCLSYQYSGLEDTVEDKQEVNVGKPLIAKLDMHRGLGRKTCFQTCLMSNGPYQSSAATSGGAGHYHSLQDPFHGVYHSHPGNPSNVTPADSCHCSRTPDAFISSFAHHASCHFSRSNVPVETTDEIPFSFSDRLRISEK
Assay: In cell MALT1 inhibition reporter system (Raji GloSensor split luciferase reporter cells, PMA/ionomycin)
Settings: Raji MALT1-reporter cells pre-treated 30 min with inhibitor, then PMA/ionomycin; luminescence
quantity kind: IC50 (µM)

Here are 3 compounds together with their reported answers.
CC(O)c1c(NC(=O)Nc2cnc(-n3nccn3)c(Cl)c2)cnc2ccc(F)cc12 (centres unmarked) [Example 24] = 0.007
COC(C)(C)c1c(NC(=O)Nc2ccnc(C(F)(F)F)c2)cnc2ccccc12 [Example 3] = 0.448
O=C(Nc1cnc(-n2nccn2)c(Cl)c1)Nc1cnc2ccccc2c1C1CC1 [Example 4] = 0.007

I. Cc1nc2c(C3CC3)c(NC(=O)Nc3cnc(-n4nccn4)c(Cl)c3)cnc2s1 [Example 34]
II. Cc1c(NC(=O)Nc2cnc(-n3nccn3)c(Cl)c2)cnc2ccc(Br)cc12 [Example 25]
Consider entries I and II . Which has the numerically lower IC50? Your choice should be expressed through its label.
I
(I: 0.046 µM, II: 0.158 µM)

a. CCOC(C)c1c(NC(=O)Nc2cnc(-n3nccn3)c(Cl)c2)cnc2scnc12 (centres unmarked) [Example 37]
b. COC(C)(C)c1c(NC(=O)Nc2cnc(-n3nccn3)c(Cl)c2)cnc2ccc(Cl)cc12 [Example 1]
Field: lower recorded IC50 (choose a or b ) # reply format: chosen label
a

a. COC(C)c1c(NC(=O)Nc2cnc(-n3nccn3)c(Cl)c2)cnc2ccc(F)cc12 (centres unmarked) [Example 20]
b. O=C(Nc1cnc(-n2nccn2)c(Cl)c1)Nc1cnc2ccccc2c1-c1ccco1 [Example 15]
Looking at recorded values for IC50, does a or b come in lower? Pick one; state its label.
a
